Tested on: NCI-H522 lung
protocol_summary: NCI tumour cell line growth inhibition, 48 h
endpoint_name: TGI

**Q:** Which TGI value is on record for COC(=O)[C@@H]1CCCCC[C@H]2C(CO)=C(C)C(=O)C12 (stereo partly drawn) ?
**A:** > 100 µM

**Q:** Which TGI value is on record for NC(N)=NCCC1OC(=O)C2=C1c1c(O)ccc3nccc(c13)O2 (stereo not drawn) ?
**A:** > 100 µM

**Q:** Which TGI value is on record for CC(CCC(=O)O)C(=O)O (stereo not drawn) ?
**A:** > 100 µM

###

System: HL-60(TB) leukemia
protocol_summary: NCI tumour cell line growth inhibition, 48 h
endpoint_name: TGI

For orientation, consider the following solved cases.
- molecule: "O=c1nc2c(c(-c3ccc(Br)cc3)[nH]1)COC/C2=C\\c1ccc(Br)cc1"
  experimental_system: "HL-60(TB) leukemia"
  TGI: "> 50 µM"
- molecule: "O=C(OCCN=c1c2ccccc2ccc2ccccc12)c1ccccc1"
  experimental_system: "HL-60(TB) leukemia"
  TGI: "> 100 µM"
- molecule: "O=c1c(Cc2ccc(Cl)cc2)nnc2sc(-c3ccc(-c4ccc(F)c(Cl)c4)o3)nn12"
  experimental_system: "HL-60(TB) leukemia"
  TGI: "> 100 µM"

**Q:** Which TGI value is on record for Cc1cc(C)nc(NS(=O)(=O)c2ccc(Nc3c4ccccc4nc4c(C(=O)N5CCN(CCOS(C)(=O)=O)CC5)cccc34)cc2)n1 ?
**A:** > 100 µM

**Q:** Which TGI value is on record for OC1(c2ccccc2)OC(C#Cc2ccccc2)(c2ccccc2)c2ccccc21 (stereo not given) ?
**A:** > 100 µM

###

Measured TGI, listed per entry.
Test system: RXF 393 renal
protocol_summary: NCI tumour cell line growth inhibition, 48 h

- compound: "COC(=O)C(=O)C(C(=O)C(=O)Nc1cccc(C(C)=O)c1)c1nc2ccccc2[nH]c1=O (centres undefined)"
  TGI: "> 100 µM"
- compound: "O=C(O)C1CCCCC1C(=O)O.[NH-]C1CCC1.[NH2-].[Pt+2] (centres undefined)"
  TGI: "> 100 µM"
- compound: "COc1cc(C(=O)Oc2ccc3c(c2)OCO3)cc(OC)c1OC"
  TGI: "> 100 µM"

# evaluate next
**Q:** Which TGI value is on record for COC(=O)Cc1ccc2c(cnn2-c2ccccc2)c1OC ?
**A:** > 10 µM

###

Tested on: UACC-62 melanoma
protocol_summary: NCI tumour cell line growth inhibition, 48 h
endpoint_name: TGI

**Q:** Write down the reported TGI of CCOc1ccc(Nc2nc(N)nc(N)c2N)cc1 , test system: UACC-62 melanoma.
**A:** > 100 µM

**Q:** Write down the reported TGI of CC1=NN(c2nc(N)nc(-c3sccc3N)n2)C(C)(C)C1 , test system: UACC-62 melanoma.
**A:** > 100 µM

**Q:** Write down the reported TGI of COc1ccccc1CN=C1Nc2ccncc2S(=O)(=O)N1c1ccccc1 , test system: UACC-62 melanoma.
**A:** > 100 µM

**Q:** Write down the reported TGI of N#CC1(O)CCCCCCCCCCC1 , test system: UACC-62 melanoma.
**A:** > 100 µM

**Q:** Write down the reported TGI of NC(=O)c1cc2c3ccccc3ccn2c1-c1ccccc1 , test system: UACC-62 melanoma.
**A:** > 41.7 µM

###

Measured TGI, listed per entry.
Test system: HL-60(TB) leukemia
protocol_summary: NCI tumour cell line growth inhibition, 48 h
Response body: numeric value in µM, unit text excluded.

- molecule: "COC(=O)C1C(C(=O)OC)C2(OC(c3ccc(Cl)cc3)=CC2=O)C12OC(c1ccc(Cl)cc1)=CC2=O (centres undefined)"
  TGI, µM: 8.29
- molecule: "COc1ccc(C2C3=C(COC3=O)Oc3cc4c(cc32)OCO4)c(OC)c1 (centres undefined)"
  TGI, µM: 39.9
- molecule: "COc1ccc2cc(-c3c(-c4ccncc4)nc(-c4ccc(S(C)(=O)=O)cc4C)n3C)ccc2c1"
  TGI, µM: 21.7
- molecule: "Cc1c(C(=O)NCCN2CCOCC2)cn2ncnc(Oc3ccc(NC(=O)Nc4ccc(Cl)c(C(F)(F)F)c4)cc3)c12"
  TGI, µM: 1.7
- molecule: "Cc1nc2sccn2c1-c1csc(Nc2cccc(Cl)c2C)n1"
  TGI, µM: 19.3

**Q:** Which TGI value is on record for O=S(=O)(c1cc(Cl)ccc1Cl)n1ccnc1 ?
**A:** 88

**Q:** Which TGI value is on record for COc1cc(-c2cn(-c3ccc(Cl)c(Cl)c3)c(=O)n2C(C)=O)cc(OC)c1OC ?
**A:** 33.9

**Q:** Which TGI value is on record for CC1C(NNc2ccccc2)Oc2cc3c(cc2C1c1ccccc1O)OCO3 (centres undefined) ?
**A:** 15.1

###

Test system: UACC-62 melanoma
protocol_summary: NCI tumour cell line growth inhibition, 48 h
Measured GI50, listed per entry.

For orientation, consider the following solved cases.
- molecular_string: "Cc1c(C(=O)NCCN2CCOCC2)cn2ncnc(Oc3ccc(NC(=O)Nc4ccc(Cl)c(C(F)(F)F)c4)cc3)c12"
  experimental_system: "UACC-62 melanoma"
  GI50: "1.34 µM"
- molecular_string: "COc1cc(-c2n/c(=C\\c3c(O)[nH]c4ccc(Cl)cc34)cc3c2=Nc2ccccc2-3)ccc1F"
  experimental_system: "UACC-62 melanoma"
  GI50: "1.65 µM"
- molecular_string: "COc1ccc2[nH]c(O)c(C(=Nc3ccc(N(C)C(=O)CN4CCN(C)CC4)cc3)c3ccccc3)c2c1"
  experimental_system: "UACC-62 melanoma"
  GI50: "5.01 µM"

# evaluate next
**Q:** Which GI50 value is on record for COc1ccccc1/C=C/C(=O)c1ccccc1 ?
**A:** 5.17 µM

###

System: SK-MEL-5 melanoma
protocol_summary: NCI tumour cell line growth inhibition, 48 h
endpoint_name: TGI

For orientation, consider the following solved cases.
- molecule: "COC(=O)/C(=N\\NC(C)(C)C)C(C(=O)C(=O)Nc1cc(C)ccc1C)c1nc2ccccc2[nH]c1=O (stereo not drawn)"
  experimental_system: "SK-MEL-5 melanoma"
  TGI: "> 100 µM"
- molecule: "CSc1cc(=O)n2c3ccccc3c3ccnc1c32"
  experimental_system: "SK-MEL-5 melanoma"
  TGI: "> 100 µM"

**Q:** Which TGI value is on record for COC(=O)Cc1ccc2c(cnn2-c2ccccc2)c1OC ?
**A:** > 10 µM

###

Tested on: MDA-MB-231 breast
protocol_summary: NCI tumour cell line growth inhibition, 48 h
Measured TGI, listed per entry.

For orientation, consider the following solved cases.
- compound: "COc1cc(C(=O)Oc2ccc3c(c2)OCO3)cc(OC)c1OC"
  experimental_system: "MDA-MB-231 breast"
  TGI: "> 100 µM"
- compound: "CN(C)CCCNC(=O)c1ccc2c(c1)oc1cc3ccccc3c(=O)n12"
  experimental_system: "MDA-MB-231 breast"
  TGI: "> 50 µM"
- compound: "O=c1cccc(C2CC(CO)C3CCCCN3C2)[nH]1 (centres undefined)"
  experimental_system: "MDA-MB-231 breast"
  TGI: "> 100 µM"
- compound: "O=C(CCc1cc(O)cc(O)c1)NCCCNC(=O)CCc1cc(O)cc(O)c1"
  experimental_system: "MDA-MB-231 breast"
  TGI: "> 100 µM"
- compound: "C1=C2C3=[N+](CCCCC3)CC2Cc2ccsc21 (centres undefined)"
  experimental_system: "MDA-MB-231 breast"
  TGI: "> 100 µM"

**Q:** Write down the reported TGI of COc1ccc(Cn2cc3c(c2)-c2oncc2CC3)cc1 , test system: MDA-MB-231 breast.
**A:** > 100 µM

**Q:** Write down the reported TGI of Cc1cc(S(=O)(=O)Nc2n[nH]c(-c3ccccn3)n2)c(S)cc1Cl , test system: MDA-MB-231 breast.
**A:** > 100 µM

**Q:** Write down the reported TGI of COc1ccc(-c2c3c(n(C4OC(CO)C(O)C(O)C4O)c(=S)c2C#N)CCC3)cc1 (centres undefined) , test system: MDA-MB-231 breast.
**A:** > 100 µM

**Q:** Write down the reported TGI of CC1=NN(c2nc(N)nc(-c3sccc3N)n2)C(C)(C)C1 , test system: MDA-MB-231 breast.
**A:** > 100 µM

**Q:** Write down the reported TGI of COc1ccc(-c2oc3c(OC)c(OC)c(OC)c(OC)c3c(=O)c2OC)cc1OC , test system: MDA-MB-231 breast.
**A:** > 100 µM

**Q:** Write down the reported TGI of CCN(CC)C(=S)Oc1cc2oc(=O)cc(C)c2cc1Cl , test system: MDA-MB-231 breast.
**A:** > 100 µM

**Q:** Write down the reported TGI of CO[C@H]1SC[C@H](OC(C)=O)[C@H](OC(C)=O)[C@H]1OC(C)=O , test system: MDA-MB-231 breast.
**A:** > 100 µM

**Q:** Write down the reported TGI of O=C(O)C1CCCCC1C(=O)O.[NH-]C1CCC1.[NH2-].[Pt+2] (centres undefined) , test system: MDA-MB-231 breast.
**A:** 38.2 µM

**Q:** Write down the reported TGI of COc1ccc(C2C3=C(COC3=O)Oc3cc4c(cc32)OCO4)c(OC)c1 (centres undefined) , test system: MDA-MB-231 breast.
**A:** > 100 µM
